These entries and their values trace back to the RNAGym collection of RNA variant scans (doi:10.1093/molbev/msab373).

B1: Azoarcus group I ribozyme (parent)
chain: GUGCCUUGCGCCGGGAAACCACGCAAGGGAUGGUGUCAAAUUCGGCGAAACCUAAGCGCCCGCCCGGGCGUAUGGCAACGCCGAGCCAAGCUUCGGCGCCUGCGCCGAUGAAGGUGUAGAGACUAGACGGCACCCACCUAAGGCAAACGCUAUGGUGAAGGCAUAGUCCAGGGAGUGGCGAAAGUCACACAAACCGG

# Variants of: B1
# METHOD: reverse-splicing fitness (ratio to wild type); higher = more active; in vitro selection; Mg2+ level not given
Decision: reverse-splicing fitness compared against 0.01; not below it gives Condition met, below it gives Condition not met.

Sample answers from the record:
## Input Determine whether measured reverse-splicing fitness meets or exceeds 0.01 for A111G A120G A145C C169U U176G
## Output Condition not met

## Input What about this variant? C82A A111G A120C C169A
## Output Condition not met

## Input What about this variant? C82A A120U A145C C150A
## Output Condition not met

## Input What about this variant? C82A A111U A120G A145C C150U C169G U176C
## Output Condition met

## Input What about this variant? C82G A111U A120C A145U C150U C169G
## Output Condition not met

## Input What about this variant? C150G C169A U176A
## Output Condition met

## Input What about this variant? A111G C150A C169U U176C
## Output Condition met

## Input What about this variant? A120U A145C C150U U176C
## Output Condition met

Continuing:
## Input Determine whether measured reverse-splicing fitness meets or exceeds 0.01 for C82U A111G A145C C150G C169A U176G
## Output Condition not met

## Input What about this variant? C82G A111U A145G C150A U176G
## Output Condition met
